# assay: Example 3: plasma pharmacokinetics of two sequential doses
# Assay type: in vivo, human
# condition label: male, human, po, 2400 mg, healthy males, 2400 mg oral, second dose, Day 3, N 11, read-out: AUClast, Median
readout label: AUC(0-t) (µg·h/mL)
Value expressed in µg·h/mL; do not type the unit.

-- ask Fill in: AUC(0-t) of CC(C)(C[C@H](N)C(=O)O)C(F)F is ___
-- reply 460
